Documented ED50 across a set of molecules
target: Serotonin (5-HT) receptor (Rattus norvegicus) (UniProt P35563+P35365+P32305+P31388+Q9JJ16+P28564+P30994+Q62758+P08909+P14842+P30940+P35364+P19327+P28565); assay: Subcutaneous dose giving half-maximal decrease of 5-HTP formation in the rat brain (limbic); assay type: functional, tissue-based
Write the value in µmol/kg as a bare number.

> print(dat)
                                   molecule  unit.tag  observed.measurement
1  CCCCNC1CCc2cccc(O)c2C1 (centres undefined)   µmol/kg                   4.3
2  CC(C)NC1CCc2cccc(O)c2C1 (centres undefined)   µmol/kg                   2.6
3   CNC1CCc2cccc(O)c2C1 (centres undefined)   µmol/kg                   1.5

Now look at this one.
The recorded ED50 for CCCN(CC)C1CCc2cccc(O)c2C1 (centres undefined) is 0.057

// data source = ChEMBL document CHEMBL1122750
